System: SNU-423
Assay: cells
Format: functional, cell-based, Homo sapiens
Settings: Homo sapiens, SNU-423
Description: SANGER: Inhibition of human SNU-423 cell growth in a cell viability assay.
attribute_measured: pIC50
Please report pIC50 as the negative decimal logarithm of the molar concentration, giving only the number.

These solved cases illustrate the format of a correct answer.
* Cn1cncc1[C@@](N)(c1ccc(Cl)cc1)c1ccc2c(c1)c(-c1cccc(Cl)c1)cc(=O)n2C [TIPIFARNIB] | 6.15
* COc1cc(F)c(F)c(Nc2ccc(I)cc2F)c1NS(=O)(=O)C1(CC(O)CO)CC1 (centres undefined) | 5.31
* CC(=O)O[C@@]12CO[C@@H]1C[C@H](O)[C@@]1(C)C(=O)[C@H](O)C3=C(C)[C@@H](OC(=O)[C@H](O)[C@@H](NC(=O)OC(C)(C)C)c4ccccc4)C[C@@](O)([C@@H](OC(=O)c4ccccc4)[C@H]21)C3(C)C [DOCETAXEL] | 8.07

I am curious: what pIC50 value has been reported for CCC1=C[C@@H]2CN(C1)Cc1c([nH]c3ccccc13)[C@@](C(=O)OC)(c1cc3c(cc1OC)N(C)[C@H]1[C@@](O)(C(=O)OC)[C@H](OC(C)=O)[C@]4(CC)C=CCN5CC[C@]31[C@@H]54)C2 [VINORELBINE] ?
8.26

---

System: HCC 2998;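 further: growth inhibition of human HCC2998 cells, measured with a cell viability read-out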
Assay: cells
Format: functional, cell-based, Homo sapiens
Settings: Homo sapiens, HCC 2998
Description: SANGER: Inhibition of human HCC2998 cell growth in a cell viability assay.
pIC50: −log10 of the molar value.
Below, each entry is listed alongside its reported pIC50.

As a guide, the following entries are already answered.
- O=c1cc(-c2cccc3c2Sc2ccccc2S3)oc(N2CCOCC2)c1: < 5.00
- CN(Cc1cnc2nc(N)nc(N)c2n1)c1ccc(C(=O)N[C@@H](CCC(=O)O)C(=O)O)cc1 [METHOTREXATE]: < 6.70
- O=C(/C=C/c1ccccc1)NC(NC(=S)Nc1cccc2cccnc12)C(Cl)(Cl)Cl (centres undefined): < 4.80

We now examine a further compound.
// lookup pIC50 for "Nc1ccn([C@@H]2O[C@H](CO)[C@@H](O)[C@@H]2O)c(=O)n1"
< 5.70

---

System: Daudi;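 further: growth inhibition of Daudi cells, read out by a viability assay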
Test: cells
Type: functional, cell-based
Details: Homo sapiens
Description: SANGER: Inhibition of human Daudi cell growth in a cell viability assay.
pIC50: −log10 of the molar value.
pIC50 for assorted compounds

Some solved entries appear below for comparison.
- CC1=C2C[C@H]3[C@@H](CC=C4C[C@@H](O)CC[C@@]43C)[C@@H]2CC[C@]12O[C@@H]1C[C@H](C)CN[C@H]1[C@H]2C [CYCLOPAMINE]: < 4.80
- CN(c1ncccc1CNc1nc(Nc2ccc3c(c2)CC(=O)N3)ncc1C(F)(F)F)S(C)(=O)=O [PF-00562271]: < 5.59

Continue with the next compound.
# query: pIC50 of entry CS(=O)(=O)CCNCc1ccc(-c2ccc3ncnc(Nc4ccc(OCc5cccc(F)c5)c(Cl)c4)c3c2)o1 [LAPATINIB]
< 5.70

---

Test system: CESS
Experiment: SANGER: Inhibition of human CESS cell growth in a cell viability assay.
Assay type: functional, cell-based
Below is a list of entries, each paired with its recorded IC50 value.
Expressed in µM, but write only the number.

• Cc1cc([C@@H](C)Nc2ccccc2C(=O)O)c2nc(N3CCOCC3)cc(=O)n2c1 [AZD-6482] = 4.8

Turning now to a further compound:
May I ask what IC50 has been recorded for COc1cc([C@@H]2c3cc4c(cc3[C@@H](O[C@@H]3O[C@@H]5CO[C@@H](C)O[C@H]5[C@H](O)[C@H]3O)[C@H]3COC(=O)[C@H]23)OCO4)cc(OC)c1O [ETOPOSIDE] ?
0.384

---

Tested on: NCI-H2122;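 further: growth inhibition of the cells, read out with a cell viability assay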
Assay: cells
Assay type: functional, cell-based, Homo sapiens
Conditions: Homo sapiens, NCI-H2122
Description: SANGER: Inhibition of human NCI-H2122 cell growth in a cell viability assay.
Reported log10 IC50 by item:
Kindly note that the scale is log10 and the underlying IC50 is in nM.

* Cn1cncc1[C@@](N)(c1ccc(Cl)cc1)c1ccc2c(c1)c(-c1cccc(Cl)c1)cc(=O)n2C | 2.28

For the compound CN(Cc1cnc2nc(N)nc(N)c2n1)c1ccc(C(=O)N[C@@H](CCC(=O)O)C(=O)O)cc1 [METHOTREXATE] , what log10 IC50 is on record?
2.18

What log10 IC50 value was documented for this compound, "C[C@]1(O)C[C@@H](c2nc(-c3ccc4ccc(-c5ccccc5)nc4c3)c3c(N)nccn32)C1" ?
2.37

Return reported log10 IC50; argument: "COC(=O)CNC(=O)C(=O)OC"
4.87

Fill blank: measured log10 IC50 of the compound "Nc1ccn([C@@H]2O[C@H](CO)[C@@H](O)[C@@H]2O)c(=O)n1" is ____.
2.63

---

Tested on: LC-1F
Test: cells
Format: functional, cell-based
Conditions: Homo sapiens
Description: SANGER: Inhibition of human LC-1F cell growth in a cell viability assay.
# Lookup of reported IC50 keyed by entry

Solved entries:
• CC1=C2C[C@H]3[C@@H](CC=C4C[C@@H](O)CC[C@@]43C)[C@@H]2CC[C@]12O[C@@H]1C[C@H](C)CN[C@H]1[C@H]2C = > 16 µM
• Cc1cc(Nc2cc(N3CCN(C)CC3)nc(Sc3ccc(NC(=O)C4CC4)cc3)n2)n[nH]1 = > 2 µM
• COC(=O)CNC(=O)C(=O)OC = > 4000 µM

Query compound follows.
IC50 of "CNC(=O)c1cc(Oc2ccc(NC(=O)Nc3ccc(Cl)c(C(F)(F)F)c3)cc2)ccn1" on LC-1F?
> 4 µM

---

Parameter: IC50. Scope: all listed entries.
Tested on: SK-MEL-1;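 further: growth inhibition of human SK-MEL-1 cells, read out by a cell viability assay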
Test: cells
Format: functional, cell-based
Conditions: Homo sapiens
Description: SANGER: Inhibition of human SK-MEL-1 cell growth in a cell viability assay.

- O=c1cc(-c2cccc3c2Sc2ccccc2S3)oc(N2CCOCC2)c1: > 10 µM
- CN1CCN(CCOc2cc(OC3CCOCC3)c3c(Nc4c(Cl)ccc5c4OCO5)ncnc3c2)CC1: > 2 µM
- O=C(c1cc(Cc2n[nH]c(=O)c3ccccc23)ccc1F)N1CCN(C(=O)C2CC2)CC1: > 5 µM

Now for the compound whose IC50 we want.
Query: IC50; subject: "Cc1cc([C@@H](C)Nc2ccccc2C(=O)O)c2nc(N3CCOCC3)cc(=O)n2c1"
> 5.12 µM

---

System: EW-16;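 further: growth inhibition of human EW-16 cells, read out as cell viability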
Assay: cells
Format: functional, cell-based, Homo sapiens
Conditions: Homo sapiens, EW-16
Description: SANGER: Inhibition of human EW-16 cell growth in a cell viability assay.
attribute_measured: IC50

Worked cases, answers included:
* CNC(=O)c1cc(Oc2ccc(NC(=O)Nc3ccc(Cl)c(C(F)(F)F)c3)cc2)ccn1 | > 4 µM
* COc1cc(F)c(F)c(Nc2ccc(I)cc2F)c1NS(=O)(=O)C1(CC(O)CO)CC1 (centres undefined) | > 5 µM
* CS(=O)(=O)CCNCc1ccc(-c2ccc3ncnc(Nc4ccc(OCc5cccc(F)c5)c(Cl)c4)c3c2)o1 | > 2 µM

Please look at the following molecule next.
What measured IC50 goes with "Cn1cc(C2=C(c3ccc(Cl)cc3Cl)C(=O)NC2=O)c2ccccc21" ?
> 10 µM

---

System: CPC-N;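 further: growth inhibition of CPC-N cells, with a cell viability assay as the readout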
Test: cells
Type: functional, cell-based
Details: Homo sapiens
Description: SANGER: Inhibition of human CPC-N cell growth in a cell viability assay.
pIC50: −log10 of the molar value.
attribute_measured: pIC50

* C=C1C(=O)O[C@@H]2C3O[C@]3(C)CC/C=C(\C)CC[C@@H]12 (some centres undefined) | < 5.30

For "COC(=O)CNC(=O)C(=O)OC" , what is its reported pIC50?
< 2.40

Look up pIC50: Cn1cncc1[C@@](N)(c1ccc(Cl)cc1)c1ccc2c(c1)c(-c1cccc(Cl)c1)cc(=O)n2C [TIPIFARNIB]
4.83

Which value of pIC50 has been reported for Cc1ccc(Nc2nccc(N(C)c3ccc4c(C)n(C)nc4c3)n2)cc1S(N)(=O)=O [PAZOPANIB] in the records?
< 5.10

---

Recorded measurements of pIC50, one per entry
Tested on: EOL1
Experiment: cells
Format: functional, cell-based
Conditions: Homo sapiens
Description: SANGER: Inhibition of human EoL-1-cell cell growth in a cell viability assay.
pIC50: −log10 of the molar value.

Worked examples follow.
* COC(=O)CNC(=O)C(=O)OC | 3.91
* Cc1ccc(Nc2nccc(N(C)c3ccc4c(C)n(C)nc4c3)n2)cc1S(N)(=O)=O | > 7.51
* CS(=O)(=O)CCNCc1ccc(-c2ccc3ncnc(Nc4ccc(OCc5cccc(F)c5)c(Cl)c4)c3c2)o1 | < 5.70
* Nc1ccn([C@@H]2O[C@H](CO)[C@@H](O)[C@@H]2O)c(=O)n1 | 6.10
* CC1=C2C[C@H]3[C@@H](CC=C4C[C@@H](O)CC[C@@]43C)[C@@H]2CC[C@]12O[C@@H]1C[C@H](C)CN[C@H]1[C@H]2C | < 4.80
* Cc1cnc(-c2cnc(NCCNc3ccc(C#N)cn3)nc2-c2ccc(Cl)cc2Cl)[nH]1 | < 5.59

Query: pIC50; subject: "Cc1cc([C@@H](C)Nc2ccccc2C(=O)O)c2nc(N3CCOCC3)cc(=O)n2c1"
< 5.29

Given the molecule "CN(c1ncccc1CNc1nc(Nc2ccc3c(c2)CC(=O)N3)ncc1C(F)(F)F)S(C)(=O)=O" , what is its reported pIC50?
< 5.59

Using the record for "Cn1cncc1[C@@](N)(c1ccc(Cl)cc1)c1ccc2c(c1)c(-c1cccc(Cl)c1)cc(=O)n2C" , report its pIC50.
5.17
